// reported TGI for each item listed
system: DMS 114 small cell lung; assay: NCI tumour cell line growth inhibition, 48 h
QUANTITY NAME: TGI

[[record]]
molecule = "COC(=O)C1=NC(=S)NC(c2ccccc2)C1c1nc2ccccc2o1 (stereo not drawn)"
observed_measurement = "> 50 µM"

[[record]]
molecule = "CN1NC(c2ccc(Cl)cc2)=C(C#N)C(=O)CC1c1ccccc1 (stereo not drawn)"
observed_measurement = "> 100 µM"

[[record]]
molecule = "OC12CCC3(OC4CCCCO4)c4ccccc4C3C1c1ccccc12 (stereo not drawn)"
observed_measurement = "> 100 µM"


====

test system: LOX IMVI melanoma; experiment: NCI tumour cell line growth inhibition, 48 h
// reported TGI for each item listed
QUANTITY NAME: TGI

[[record]]
mol = "CCOC(=O)Cc1c(C(=O)OCC)[n+](=O)c2cc(Cl)c(Cl)cc2n1[O-]"
observed_measurement = "4.65 µM"

[[record]]
mol = "NCCCN(CCCCN(CCCN)CCCc1ccccc1)CCCc1ccccc1"
observed_measurement = "6.38 µM"

[[record]]
mol = "Cc1ccc(C(=O)N/N=C(\\N=Nc2ccc([N+](=O)[O-])cc2)c2ccc(N(CCC#N)CCC#N)cc2C)cc1"
observed_measurement = "> 100 µM"

[[record]]
mol = "Cc1ccc(/C=c2\\cc3oc(=O)c4cccc(c4-3)c2=O)cc1"
observed_measurement = "> 100 µM"

[[record]]
mol = "Cn1c(=O)c(-c2ccccc2Cl)cc2cnc(NC3CCOCC3)nc21"
observed_measurement = "> 25 µM"


====

// reported TGI for each item listed
tested on: CCRF-CEM leukemia; experiment: NCI tumour cell line growth inhibition, 48 h
QUANTITY NAME: TGI

[[record]]
compound = "NC(=S)NNCC(=O)CC(O)(C(F)(F)F)C(F)(F)Cl (stereo not drawn)"
observed_measurement = "> 100 µM"

[[record]]
compound = "COc1ccc(-c2nsc3c2NC(=O)CC3c2ccsc2)cc1 (stereo not drawn)"
observed_measurement = "> 100 µM"

[[record]]
compound = "O=C(/C=C/c1ccccc1)c1ccc(Cl)cc1Cl"
observed_measurement = "33.1 µM"

[[record]]
compound = "CC(C)c1ccc(O)c(Cc2cc(C(C)C)cc(Cc3cc(C(C)C)ccc3O)c2O)c1"
observed_measurement = "6.91 µM"

[[record]]
compound = "O=C(Nc1ccn(C2CC(O)C(COC(c3ccccc3)(c3ccccc3)c3ccccc3)O2)c(=O)n1)c1ccccc1 (stereo not drawn)"
observed_measurement = "6.2 µM"

[[record]]
compound = "CC(=O)N[C@@H](Cc1ccc(O)cn1)C(=O)NCc1ccc(Cl)cc1"
observed_measurement = "> 100 µM"

[[record]]
compound = "NC(Cc1ccccc1)C(=O)OCN1C(=O)C2C3C=CC(C2C1=O)C1C(=O)N(COC(=O)C(N)Cc2ccccc2)C(=O)C31 (stereo not drawn)"
observed_measurement = "49.7 µM"

[[record]]
compound = "COc1cc2c(oc(=O)c3c4occc4cc(OC)c23)c2cccc(O)c12"
observed_measurement = "> 100 µM"

[[record]]
compound = "C[N+]1(C)CCCC(C#N)(c2ccccc2)CC1 (stereo not drawn)"
observed_measurement = "> 100 µM"

[[record]]
compound = "COCN1C(=O)[C@@H]2CCCN2C(=O)c2ccc(N)cc21"
observed_measurement = "> 100 µM"

[[record]]
compound = "O=CN1CCN(c2ccc3ccc(=O)[nH]c3n2)CC1"
observed_measurement = "> 100 µM"

[[record]]
compound = "CC(C)(C)OC(=O)Cn1ncn(NC(=O)Cc2ccccc2)c1=S"
observed_measurement = "> 10 µM"

[[record]]
compound = "COc1ccc(/C=C/C(=N\\NC(=O)c2ccccc2)c2sc(Nc3ccc([N+](=O)[O-])cc3)nc2C)cc1OC"
observed_measurement = "> 100 µM"

[[record]]
compound = "Nc1cccc(-c2cc(=O)c3cc4c(cc3[nH]2)OCO4)c1"
observed_measurement = "> 100 µM"

[[record]]
compound = "S=c1ssnc1-c1cc2ccccc2o1"
observed_measurement = "> 100 µM"

[[record]]
compound = "CCOC(=O)c1ccc(N(CCOS(C)(=O)=O)CCOS(C)(=O)=O)cc1"
observed_measurement = "77.6 µM"

[[record]]
compound = "Cc1c(Cl)ccc2c1NC(=O)C2(O)CC(=O)c1ccc(Cl)cc1 (stereo not drawn)"
observed_measurement = "53.5 µM"

[[record]]
compound = "CC(C)(O)C1COC2=C1C(=O)c1ccccc1C2=O (stereo not drawn)"
observed_measurement = "> 100 µM"

[[record]]
compound = "CCN(CC)CCOC(COc1cc(C)cc(C)c1)COc1cc(C)cc(C)c1"
observed_measurement = "8.24 µM"

[[record]]
compound = "Nc1nc(SCc2ccccc2CCl)c2[nH]cnc2n1"
observed_measurement = "> 100 µM"

[[record]]
compound = "Cc1c2cc[n+](Cc3ccc(I)cc3)cc2c(C)c2c1[nH]c1ccccc12"
observed_measurement = "9.51 µM"

[[record]]
compound = "NCCCN(CCCCN(CCCN)CCCc1ccccc1)CCCc1ccccc1"
observed_measurement = "7.83 µM"

[[record]]
compound = "O=c1c(I)c[nH]cc1I"
observed_measurement = "> 100 µM"

[[record]]
compound = "CC1CC(=O)N(N(C)C)C2(C#N)C(=O)N=C(N)C12C#N (stereo not drawn)"
observed_measurement = "67.5 µM"

[[record]]
compound = "COC1OC2COC(=O)c3cc(O)c(O)c(O)c3-c3c(cc(O)c(O)c3O)C(=O)OC2C(O)C1O (stereo not drawn)"
observed_measurement = "> 100 µM"

[[record]]
compound = "CNC(=O)OCc1cnc([N+](=O)[O-])n1C"
observed_measurement = "> 100 µM"

[[record]]
compound = "O=C(NNC(=O)c1ccco1)c1ccco1"
observed_measurement = "> 100 µM"

[[record]]
compound = "S=c1ncc(-c2cncc(-c3cnc(=S)[nH]c3)n2)c[nH]1"
observed_measurement = "> 100 µM"


====

system: SNB-75 CNS; experiment: NCI tumour cell line growth inhibition, 48 h; in the data active = GI50 below about 0.43 µM; inactive = the rest
Labels: yes (1) (active), no (0) (inactive)

[[record]]
mol = "S=c1ssnc1-c1cc2ccccc2o1"
label_class = "no (0)"

[[record]]
mol = "[O]=[Sn]([CH]1CCCCC1)[CH]1CCCCC1"
label_class = "yes (1)"

[[record]]
mol = "CC1(C)N=C(N)N=C(N)N1c1ccc(CCCC(=O)Nc2ccc(S(=O)(=O)F)cc2)cc1"
label_class = "no (0)"


====

test system: CAKI-1 renal; experiment: NCI tumour cell line growth inhibition, 48 h
QUANTITY NAME: TGI

[[record]]
molecule = "CCOC(=O)C1=C(O)CC(=O)N=C1N1CCCC1"
target_or_test_system = "CAKI-1 renal"
quantity_name = "TGI"
observed_measurement = "> 100 µM"

[[record]]
molecule = "CCN(CC)c1c(C(C)(C)C)c(=O)n2ccsc2c1OC(C)=O"
target_or_test_system = "CAKI-1 renal"
quantity_name = "TGI"
observed_measurement = "33.1 µM"

[[record]]
molecule = "CC(C)=C[C@@H]1C[C@H](C)[C@H]2CC[C@H](C)c3c(O)c(OC4OC(C)C(O)C(O)C4O)c(C)c1c32 (stereo partly drawn)"
target_or_test_system = "CAKI-1 renal"
quantity_name = "TGI"
observed_measurement = "28.7 µM"

[[record]]
molecule = "CCCCCCCCCCCC/C=C\\CC[C@@H](O)[C@H](O)CC[C@H](O)[C@@H]1CC[C@@H](CCCCCCCC2=C[C@H](C)OC2=O)O1"
target_or_test_system = "CAKI-1 renal"
quantity_name = "TGI"
observed_measurement = "35.7 µM"

[[record]]
molecule = "COC(=O)/C=C(C)/C=C\\COC1CCCCO1 (stereo not drawn)"
target_or_test_system = "CAKI-1 renal"
quantity_name = "TGI"
observed_measurement = "> 100 µM"

[[record]]
molecule = "COc1cc2ncn(-c3cc(OCc4ccccc4C(F)(F)F)c(C(N)=O)s3)c2cc1OC"
target_or_test_system = "CAKI-1 renal"
quantity_name = "TGI"
observed_measurement = "> 25 µM"

[[record]]
molecule = "S=C(NCc1ccccn1)N/N=C/c1ccccn1"
target_or_test_system = "CAKI-1 renal"
quantity_name = "TGI"
observed_measurement = "4.33 µM"

[[record]]
molecule = "C=CCNC(=S)NNC(=O)c1c(C)nc2sccn12"
target_or_test_system = "CAKI-1 renal"
quantity_name = "TGI"
observed_measurement = "> 100 µM"

[[record]]
molecule = "CCSC[C@@H]1C[C@](O)(c2ccccc2)[C@@H](c2ccccc2)O1"
target_or_test_system = "CAKI-1 renal"
quantity_name = "TGI"
observed_measurement = "> 100 µM"

[[record]]
molecule = "C[N+]1(C)CCCC(C#N)(c2ccccc2)CC1 (stereo not drawn)"
target_or_test_system = "CAKI-1 renal"
quantity_name = "TGI"
observed_measurement = "> 100 µM"

[[record]]
molecule = "CNC(=O)OCc1cnc([N+](=O)[O-])n1C"
target_or_test_system = "CAKI-1 renal"
quantity_name = "TGI"
observed_measurement = "> 100 µM"

[[record]]
molecule = "C=CCC(N[C@@H](CO)c1ccccc1)c1ccc2ccccc2n1 (stereo partly drawn)"
target_or_test_system = "CAKI-1 renal"
quantity_name = "TGI"
observed_measurement = "> 100 µM"

[[record]]
molecule = "O=C1c2cc3c(cc2NC(c2ccccc2F)C1O)OCO3 (stereo not drawn)"
target_or_test_system = "CAKI-1 renal"
quantity_name = "TGI"
observed_measurement = "> 77.8 µM"


Measured values drawn from PubChem BioAssay (NCI) for this set.
